tgt: human α1H T-type channels (Homo sapiens, UniProt O95180)
Construct: expressed in transfected cells; host or cells: HEK 293
Sequence (O95180 whole entry): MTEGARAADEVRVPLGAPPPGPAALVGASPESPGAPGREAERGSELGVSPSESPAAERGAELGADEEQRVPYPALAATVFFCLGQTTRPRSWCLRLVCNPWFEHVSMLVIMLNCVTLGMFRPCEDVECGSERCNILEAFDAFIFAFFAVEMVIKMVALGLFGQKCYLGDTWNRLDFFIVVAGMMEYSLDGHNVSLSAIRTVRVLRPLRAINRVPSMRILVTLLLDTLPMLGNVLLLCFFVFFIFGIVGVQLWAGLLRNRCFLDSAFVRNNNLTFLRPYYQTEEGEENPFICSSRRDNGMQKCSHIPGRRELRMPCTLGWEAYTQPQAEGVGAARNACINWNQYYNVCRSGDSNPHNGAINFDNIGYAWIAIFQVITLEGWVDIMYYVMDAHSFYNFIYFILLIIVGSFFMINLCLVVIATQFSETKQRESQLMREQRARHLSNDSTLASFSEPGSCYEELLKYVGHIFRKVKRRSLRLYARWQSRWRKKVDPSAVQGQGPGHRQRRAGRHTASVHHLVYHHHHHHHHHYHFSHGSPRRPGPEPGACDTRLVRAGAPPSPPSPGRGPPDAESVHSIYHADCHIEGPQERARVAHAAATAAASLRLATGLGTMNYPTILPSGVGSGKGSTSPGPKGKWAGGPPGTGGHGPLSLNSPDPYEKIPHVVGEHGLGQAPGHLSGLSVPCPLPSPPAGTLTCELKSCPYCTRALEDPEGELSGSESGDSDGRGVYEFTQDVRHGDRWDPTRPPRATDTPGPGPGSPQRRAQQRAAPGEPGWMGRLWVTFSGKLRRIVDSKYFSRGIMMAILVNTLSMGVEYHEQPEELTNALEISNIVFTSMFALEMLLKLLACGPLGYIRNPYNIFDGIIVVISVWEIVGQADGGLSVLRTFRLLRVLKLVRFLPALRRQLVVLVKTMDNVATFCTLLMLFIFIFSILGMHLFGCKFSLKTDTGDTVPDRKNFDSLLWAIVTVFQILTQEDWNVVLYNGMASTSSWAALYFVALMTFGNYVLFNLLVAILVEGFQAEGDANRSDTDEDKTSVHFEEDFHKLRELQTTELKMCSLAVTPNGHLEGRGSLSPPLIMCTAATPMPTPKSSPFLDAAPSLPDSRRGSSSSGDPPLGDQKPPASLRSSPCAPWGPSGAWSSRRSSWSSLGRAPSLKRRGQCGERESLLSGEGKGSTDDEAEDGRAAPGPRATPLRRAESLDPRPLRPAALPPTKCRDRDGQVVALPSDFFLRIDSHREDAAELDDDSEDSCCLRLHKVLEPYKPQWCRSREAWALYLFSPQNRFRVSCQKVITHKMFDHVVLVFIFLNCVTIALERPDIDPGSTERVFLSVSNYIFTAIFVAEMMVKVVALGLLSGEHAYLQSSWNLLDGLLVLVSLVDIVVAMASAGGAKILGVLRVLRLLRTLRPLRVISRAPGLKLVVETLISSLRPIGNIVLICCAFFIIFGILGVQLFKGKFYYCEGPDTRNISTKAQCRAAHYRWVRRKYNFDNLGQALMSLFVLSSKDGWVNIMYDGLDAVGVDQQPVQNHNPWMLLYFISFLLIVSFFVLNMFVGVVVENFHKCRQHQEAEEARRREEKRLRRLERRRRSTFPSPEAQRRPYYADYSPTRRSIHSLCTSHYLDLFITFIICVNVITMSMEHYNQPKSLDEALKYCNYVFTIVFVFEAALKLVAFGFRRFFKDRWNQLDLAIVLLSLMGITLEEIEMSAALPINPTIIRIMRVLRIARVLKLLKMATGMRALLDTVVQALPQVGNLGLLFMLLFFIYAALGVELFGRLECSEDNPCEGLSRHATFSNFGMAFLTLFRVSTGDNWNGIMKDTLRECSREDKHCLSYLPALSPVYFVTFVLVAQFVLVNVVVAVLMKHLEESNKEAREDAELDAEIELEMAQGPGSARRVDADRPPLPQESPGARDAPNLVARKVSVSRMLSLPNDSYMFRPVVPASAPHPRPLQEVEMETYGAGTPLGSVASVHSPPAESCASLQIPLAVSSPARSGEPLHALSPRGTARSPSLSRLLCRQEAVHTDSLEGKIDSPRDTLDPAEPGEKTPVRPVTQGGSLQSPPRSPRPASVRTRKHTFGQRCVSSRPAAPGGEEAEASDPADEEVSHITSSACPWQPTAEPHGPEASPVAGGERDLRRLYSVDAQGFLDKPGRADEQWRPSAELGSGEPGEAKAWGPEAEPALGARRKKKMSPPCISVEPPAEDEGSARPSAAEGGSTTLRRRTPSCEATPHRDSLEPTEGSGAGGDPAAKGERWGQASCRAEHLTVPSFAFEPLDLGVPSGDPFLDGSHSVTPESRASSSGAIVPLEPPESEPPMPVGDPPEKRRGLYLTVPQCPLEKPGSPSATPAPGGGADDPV
protocolNotes: T-type calcium channel block, whole cell patch clamp in HEK cells (α1H)
Assay type: cell-based
settings: HEK cells, patch clamp, mainly non-inactivated protocol; values above 10 μM shown as 10 μM; read-out: T-type Calcium Channel Block α1H IC50
Each record gets a class by IC50: low: < 200 nM; intermediate: ≥ 200 nM and < 900 nM; high: ≥ 900 nM

Example cases with answers are listed next.
                                   compound  classassignment
0  CCS(=O)(=O)NC1(CN2CCC(CNC(=O)c3cc(C(F)(F)F)cc(C(F)(F)F)c3)CC2)CCCC1     intermediate
1  CCC1CCCN1CC(=O)N1CCC(CNC(=O)c2cc(C(F)(F)F)cc(C(F)(F)F)c2)CC1 (centres unmarked)             high
2  CC(C)(NC(=O)CN1CCC(CNC(=O)c2cccc(C(F)(F)F)c2)CC1)C(F)(F)F              low
3  COc1cc(F)cc(C(=O)NCC2CCN(CC(=O)N(C)C(C)(C)C)CC2)c1     intermediate
4  CCONC(=O)CN1CCC(CNC(=O)c2cc(C(F)(F)F)cc(C(F)(F)F)c2)CC1             high

Query: Which class does CCC(C)(C)NC(=O)CN1CCC(CNC(=O)c2cc(C(F)(F)F)cc(C(F)(F)F)c2)CC1 fall in?
Result: low

Query: Field: class (IC50) — entry: CC1(NC(=O)CN2CCC(CNC(=O)c3cccc(OC(F)(F)F)c3)CC2)CCC1
Result: low

Where do the numbers come from? From patent US8569344B2.
